Listing of recorded effect in % (aphids killed) by entry.
test system: Myzus persicae; test: Myzus test (MYZUPE spray treatment); type: in vivo; details: application rate 500 g/ha, after 5 days, Chinese cabbage leaf discs
PROPERTY: effect in % (aphids killed)

| COMPOUND | RECORDED RESULT |
| --- | --- |
| CCc1cc(Br)cc(Cl)c1C1=C(OC(=O)C(C)(C)C)NC2(CCCCC2)C1=O | 90% |
| CCOC(=O)OC1=C(c2cc(C)c(Cl)cc2C)C(=O)C2(CCC(COC)CC2)N1 (centres unmarked) | 90% |
| CCc1cc(C)cc(Br)c1C1=C(OC(=O)C(C)C)NC(C)(C)C1=O | 90% |
| CCC(C)(C)C(=O)OC1=C(c2cc(C)ccc2C)C(=O)C2(CCC(OC)CC2)N1 (centres unmarked) | 100% |
| CCc1cc(Cl)cc(OC)c1C1=C(OC(=O)C(C)(C)C)NC2(CCC(OC)CC2)C1=O (centres unmarked) | 80% |
| CCOC(=O)OC1=C(c2c(CC)cc(C)cc2C2CC2)C(=O)C(C)(C)N1 | 100% |
| CCOC(=O)OC1=C(c2cc(C)ccc2C)C(=O)[C@@]2(CCC[C@H](COC)C2)N1 | 100% |
| CCOC(=O)OC1=C(c2c(C)cc(I)cc2CC)C(=O)C2(CCC(OC)CC2)N1 (mixture of isomers) | 100% |
| COc1cc(C)cc(C)c1C1=C(OC(=O)C(C)(C)C)NC2(CCC(OC)CC2)C1=O (centres unmarked) | 100% |
| CCc1cc(C)cc(Br)c1C1=C(OC(=O)C(C)(C)C)NC(C)(C)C1=O | 80% |
| CCOC(=O)OC1=C(c2c(C)cc(C)cc2C)C(=O)C2(CCC(COC)CC2)N1 (centres unmarked) | 90% |
